# assayedTarget: Recombinant human KIF18A (1-467 His-tagged) protein (Homo sapiens (Human), UniProt Q8NI77)
# Sequence (Q8NI77 1-467): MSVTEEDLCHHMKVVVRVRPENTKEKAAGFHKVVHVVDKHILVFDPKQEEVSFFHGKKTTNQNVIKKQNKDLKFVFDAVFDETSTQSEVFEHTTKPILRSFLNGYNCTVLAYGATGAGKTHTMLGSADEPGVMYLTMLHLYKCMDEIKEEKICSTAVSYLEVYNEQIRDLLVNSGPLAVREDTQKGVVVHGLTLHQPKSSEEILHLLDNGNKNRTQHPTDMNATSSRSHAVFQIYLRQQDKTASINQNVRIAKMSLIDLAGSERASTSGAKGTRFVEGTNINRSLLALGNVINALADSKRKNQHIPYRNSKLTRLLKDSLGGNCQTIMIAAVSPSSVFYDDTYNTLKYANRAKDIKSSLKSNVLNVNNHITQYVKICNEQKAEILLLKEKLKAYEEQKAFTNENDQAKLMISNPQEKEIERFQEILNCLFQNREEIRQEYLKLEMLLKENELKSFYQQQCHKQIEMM
# Sequence (P02550 whole entry partner): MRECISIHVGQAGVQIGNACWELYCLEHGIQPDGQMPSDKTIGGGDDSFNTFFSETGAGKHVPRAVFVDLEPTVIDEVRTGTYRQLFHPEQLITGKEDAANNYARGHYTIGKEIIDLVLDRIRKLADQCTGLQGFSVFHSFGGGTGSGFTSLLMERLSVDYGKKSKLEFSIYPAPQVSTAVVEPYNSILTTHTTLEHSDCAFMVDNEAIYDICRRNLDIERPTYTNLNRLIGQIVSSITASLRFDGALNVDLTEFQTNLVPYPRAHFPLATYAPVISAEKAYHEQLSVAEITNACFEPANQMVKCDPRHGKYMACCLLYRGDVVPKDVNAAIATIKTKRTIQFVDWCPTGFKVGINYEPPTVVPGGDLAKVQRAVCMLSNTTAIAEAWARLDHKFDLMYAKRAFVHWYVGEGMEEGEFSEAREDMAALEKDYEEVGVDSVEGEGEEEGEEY
# Sequence (P02554 whole entry partner): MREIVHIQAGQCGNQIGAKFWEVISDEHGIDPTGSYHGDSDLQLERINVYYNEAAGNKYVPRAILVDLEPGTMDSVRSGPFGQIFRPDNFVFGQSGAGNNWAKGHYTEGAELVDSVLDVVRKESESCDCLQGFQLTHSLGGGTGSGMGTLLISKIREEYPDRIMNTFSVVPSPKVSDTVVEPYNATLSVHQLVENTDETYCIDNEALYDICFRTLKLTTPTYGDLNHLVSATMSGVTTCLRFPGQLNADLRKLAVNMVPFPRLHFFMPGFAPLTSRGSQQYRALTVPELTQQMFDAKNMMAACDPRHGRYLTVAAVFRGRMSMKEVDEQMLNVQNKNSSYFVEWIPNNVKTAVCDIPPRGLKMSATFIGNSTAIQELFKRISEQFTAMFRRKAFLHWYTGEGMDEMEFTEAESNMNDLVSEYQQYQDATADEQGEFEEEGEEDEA
# experiment: KIF18A Enzyme Assay: microtubule-stimulated ATPase activity (ADP-Glo)
# runConditions: read-out: KIF18A ATPase IC50; 30 nM KIF18A, 30 μg/mL pig microtubules, ATP at Km 75 μM, ADP-Glo luminescence
Measured log10(IC50), listed per entry.
The figures below represent log10 of IC50, where IC50 is stated in nM.

These recorded examples may help you get a feel for the data.
{"compound": "Cc1cc(NC(=O)c2cc(F)c(NS(=O)(=O)[C@H](C)CO)cc2N2CCC3(CC2)CC3)nc(N2CCC(F)(F)CC2)n1 (single isomer, unassigned)", "log10(IC50)": 1.96}
{"compound": "C[C@@H]1CN(c2nccc(NC(=O)c3cc(F)c(NS(=O)(=O)CCO)cc3N3CCC4(CC3)CC4)n2)CCO1", "log10(IC50)": 1.89}
{"compound": "Cc1cc(NC(=O)c2ccc(S(=O)(=O)N[C@H](C)CO)cc2N2CCC3(CC2)CC3)nc(N2CCC(F)(F)CC2)n1", "log10(IC50)": 2.10}
{"compound": "Cc1cc(NC(=O)c2ccc(NS(=O)(=O)C[C@@H](C)O)cc2N2CCC3(CC2)CC3)nc(N2CCC(F)(F)CC2)n1", "log10(IC50)": 2.05}
{"compound": "C[C@@H]1CN(c2nccc(NC(=O)c3ccc(S(C)(=O)=O)cc3N3CCC4(CC3)CC4)n2)CCO1", "log10(IC50)": 2.38}
{"compound": "Cc1cc(NC(=O)c2ccc(NS(=O)(=O)CCO)cc2N2CCC3(CC2)CC3)nc(N2CCOC(C)(C)C2)n1", "log10(IC50)": 2.18}

Could you please provide reported log10(IC50) for `Cc1cc(NC(=O)c2ccc(NS(=O)(=O)CCO)cc2N2CCC3(CC2)CC3)nc(N2CCC23COC3)n1` ? Thanks!
2.11

Could you please provide reported log10(IC50) for `Cc1cc(NC(=O)c2ccc(NS(=O)(=O)CCO)cc2N2CCC3(CC2)CC3)nc(OCCC(F)(F)F)n1` ? Thanks!
1.85

Could you please provide reported log10(IC50) for `Cc1cc(NC(=O)c2ccc(S(=O)(=O)NC3(C)COC3)cc2N2CCC3(CC2)CC3)nc(N2CCC(F)(F)CC2)n1` ? Thanks!
2.01

Could you please provide reported log10(IC50) for `Cc1cc(NC(=O)c2ccc(NS(=O)(=O)CCO)cc2N2CCC3(CC2)CC3)nc(N2CC3(CC3)C2)n1` ? Thanks!
3.04

Could you please provide reported log10(IC50) for `Cc1cc(NC(=O)c2ccc(NS(=O)(=O)CCO)cc2N2CCC3(CC2)CC3)nc(N2CCO[C@@H](C)C2)n1` ? Thanks!
1.54

Could you please provide reported log10(IC50) for `Cc1cc(NC(=O)c2ccc(NS(=O)(=O)C[C@H](C)O)cc2N2CCC3(CC2)CC3)nc(N2CCC(F)(F)CC2)n1` ? Thanks!
2.15

Could you please provide reported log10(IC50) for `Cc1cc(NC(=O)c2ccc(NS(=O)(=O)C(C)C)cc2N2CCC3(CC2)CC3)nc(N2CCC(F)(F)CC2)n1` ? Thanks!
2.18

Could you please provide reported log10(IC50) for `Cc1cc(NC(=O)c2ccc(NS(=O)(=O)CCCO)cc2N2CCC3(CC2)CC3)nc(N2CCC(F)(F)CC2)n1` ? Thanks!
1.93

Could you please provide reported log10(IC50) for `Cc1cc(NC(=O)c2ccc(S(=O)(=O)NCCO)cc2N2CCC3(CC2)CC3)nc(N2CCC(F)(F)CC2)n1` ? Thanks!
1.80

Could you please provide reported log10(IC50) for `Cc1cc(NC(=O)c2ccc(NS(=O)(=O)C(C)(C)C)cc2N2CCC3(CC2)CC3)nc(N2CCC(F)(F)CC2)n1` ? Thanks!
2.62

Could you please provide reported log10(IC50) for `Cc1cc(NC(=O)c2ccc(NS(=O)(=O)CC3CC3)cc2N2CCC3(CC2)CC3)nc(N2CCC(F)(F)CC2)n1` ? Thanks!
1.93
